PROTOCOL_TEXT: Oral bioavailability in dog at 1 mg/kg, iv
Type: ADME, organism-based, Canis lupus familiaris
CONDITION_DETAILS: in vivo
# Lookup of reported bioavailability keyed by entry
Return type: number; implicit unit %.

[
  {
    "MOLECULE": "CC(C)(F)C[C@H](N[C@@H](c1ccc(-c2ccc(S(C)(=O)=O)cc2)cc1)C(F)(F)F)C(=O)NC1(C#N)CC1 [ODANACATIB]",
    "bioavailability / %": 6
  }
]

Now, please, on to the next molecule.
Data request: Consider the molecule shown here: `CC(C)(F)C[C@H](N[C@@H](c1ccc(-c2ccc(S(C)(=O)=O)cc2)cc1)C(F)F)C(=O)NC1(C#N)CC1` What is its recorded bioavailability?
Data returned: 23
